B1: Azoarcus group I ribozyme (parent)
chain: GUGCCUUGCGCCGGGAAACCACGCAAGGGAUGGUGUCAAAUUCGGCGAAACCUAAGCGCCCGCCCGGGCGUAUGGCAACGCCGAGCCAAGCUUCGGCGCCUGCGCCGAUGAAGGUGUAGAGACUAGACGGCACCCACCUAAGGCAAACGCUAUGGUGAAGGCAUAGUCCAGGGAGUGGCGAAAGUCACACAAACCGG

variants of: B1; assay: reverse-splicing fitness (ratio to wild type); higher = more active; in vitro selection; Mg2+ level not given
quantity-kind: reverse-splicing fitness
Form field (numeric): enter value without unit.

# input # return recorded reverse-splicing fitness for input C82G A111G A145C C169A U176C
# output 0.00787

# input # return recorded reverse-splicing fitness for input C82G A111C A120G C150U
# output 0.0121

# input # return recorded reverse-splicing fitness for input C82G A111G A120C A145C C150A C169A U176A
# output 0.0183

# input # return recorded reverse-splicing fitness for input C82G A120G A145G C169A U176A
# output 0.0185

# input # return recorded reverse-splicing fitness for input C82A A120G A145C C150G U176A
# output 0.00476

# input # return recorded reverse-splicing fitness for input C82G A111C A120G A145C C150A
# output 0.00698

# input # return recorded reverse-splicing fitness for input C82A A111G A120G A145G C150U C169G U176C
# output 0.0176

# input # return recorded reverse-splicing fitness for input C82U A120U A145G C150A U176A
# output 0.0113

# input # return recorded reverse-splicing fitness for input C82U A111C A145U C150U C169G U176C
# output 0.0165

# input # return recorded reverse-splicing fitness for input C82U A111U A120U C150G C169A U176G
# output 0.00272

# input # return recorded reverse-splicing fitness for input A111C C150U C169G U176G
# output 0.0072
